Tested on: Escherichia coli ATCC 11229
Test: MIC values, water-insoluble (covered area of plates, solutions in acetone)
Format: cell-based
Conditions: solution in acetone, concentration 1.00 % by wt.; 100% means no inhibiting action
Listed next: entries and their corresponding size of the covered areas of the plates, E. coli.
readout: size of the covered areas of the plates, E. coli (%)

> print(dat)
                                   compound  value.reported
1     C=CCC(CO)Cc1ccccc1 (stereo not drawn)              90
2  CCC(CO)Cc1ccc(C)c(C)c1 (stereo not drawn)             100
3    CCC(CO)Cc1ccc(C)cc1 (stereo not drawn)              95

Taken from patent EP0799174B1.
